# Assay Method Text: yeast display, Sf9 membrane polyspecificity reagent, FACS + sequencing; frameworks hold sequencing errors

>  <Macromolecule Sequence>
QVQLVESGGGLVQAGGSLRLSCAASGFTFEYYALGWYRPAPGKERELVAAITYSGGSTYYADSVKGRFTISRDNAKITVYLQLNSLKPEDTAVYYCATESPRYRLYQSAVYGYFYWGQGTQVTVSS

>  <polyreactivity (PSR sort gate)>
high polyreactivity

$$$$
>  <Macromolecule Sequence>
QVQLVESGGGLVQAGGSLRLSCAASGGTFKYYTMGWYRQAPGKERELVAAISSGGITYYADSVKGRFTISRDNAKNTVYLQMNSLKPEDTAVYYCNVVSYYIAGGWYEGDYWGQGTQVTVSS

>  <polyreactivity (PSR sort gate)>
low polyreactivity

$$$$
>  <Macromolecule Sequence>
QLQLVESGGGLVQAGGSLRLSCAASGGIFPNYVMGWYRKAPGKERELVAGITSGGNTNYADSVKGRFTISRDNAKNTVYLQMNSLKPEDTAVYYCAADGYRYSVYLIRNPMDYWGQGTQVTVSS

>  <polyreactivity (PSR sort gate)>
low polyreactivity

$$$$
>  <Macromolecule Sequence>
QVQLVESGGGLVQAGGSLRLSCAASGSIFPSYAMGWYRQAPRKERELVATIGRGGTTNYADSVKGRFTISRDNAKNTVYLQMNSLKPEDTAVYSCNAERIWRYKDGYDYWGQGTQVTVSS

>  <polyreactivity (PSR sort gate)>
high polyreactivity

$$$$
>  <Macromolecule Sequence>
QVQLQESGGCLVLAGGSLRLSCAASGYIFDTCPMGWYRQAPGKEREFVASIDHGSNTYYADSVKGRFTISRDSAKNTVYLQMNSLKPEDTAVYYCAVRDDGSYTYGNWGQGTQVTVSS

>  <polyreactivity (PSR sort gate)>
high polyreactivity

$$$$
>  <Macromolecule Sequence>
QVQLVESGGGLVQAGGSLRLSCAASGFTFRYYAMGWSRQAAGKERELVATITGSGGSTYYADSVKGRFTISRDNAKNTVYLQMNSLKPEDTAVYYCNTVWYSDVRYTRFYYWGQGTQVTVSS

>  <polyreactivity (PSR sort gate)>
high polyreactivity

$$$$
>  <Macromolecule Sequence>
QVQLVESARGLVQAGGSLRLSCAASGYTIRANAMGWYRQAPGKEREFVAAISRSGGSTYYADSVKGRFTISRDNAKNTVYLQMNCLKPEDTAVYYCNNLYPYYATHTTRGLDYWGQGTQVTVSS

>  <polyreactivity (PSR sort gate)>
high polyreactivity

$$$$
>  <Macromolecule Sequence>
QVQLVESGGGLVQAGGSLRLSCAASGRTFYDYDMGWYRQAPGKERELFAAISGGDSTYYADSVKGRFTISRDNAKNTFYLQLKSLKPEDTAVYDCAVTPRGLPYGAYLLYYWGQGTQVTVSS

>  <polyreactivity (PSR sort gate)>
low polyreactivity

$$$$
>  <Macromolecule Sequence>
QVQLVESGGGLVQAGGSLRLSCAASGSTFPSYAMGWYRQAPGKERELVASITSSGGSTYYADSVKGRFTISRDNAKNTVYLQMNSLKPEDTAVYYCNARRYYYSWGREGGYWGQGTQVTVSS

>  <polyreactivity (PSR sort gate)>
low polyreactivity

$$$$
>  <Macromolecule Sequence>
QDQLVESGGGLVQAGGSLRLSCASSGSTFYYKAMGWSRQEPGKERELVARISRSGGSTYADSVKGRFTISRDNAKYTVYLQMNSLKPEDTAVYYCNADAYGTPEFTSYAVRYDYWGQGTQVTVSS

>  <polyreactivity (PSR sort gate)>
low polyreactivity

$$$$
>  <Macromolecule Sequence>
QVQLVESGGGLVQAGGSLRLSCAASGRIFRTYTMGWYRQAPGKERELVAAITSGSSTYYADSVKGRFTISRDNAKNTVYLQMHSLKPEDTAVYYCATEWSIGRHLYTYNYWGPGTQVTVSS

>  <polyreactivity (PSR sort gate)>
high polyreactivity

$$$$
>  <Macromolecule Sequence>
QVQLVESGGGLVQAGGSLRLSCAASGSIFSSYAMGGYRQAPGKEWELVAAISRRGGSTYYADSVKGRFTISRDNAKNTVYLQMNSLKPEDTAVYYCNADSAARKGWPIYGYWGQGTQVTVSS

>  <polyreactivity (PSR sort gate)>
high polyreactivity

$$$$
>  <Macromolecule Sequence>
QVQLVESGGGLDQAGGSLRLICAASGITIEYYAMAWYRTAPGKERELVAAISSGGGSTYYADSVKGRFTISRDNAKNSVYLQMISLKPEDTAVYYCAADIVSSPSSYVPPGDYWGQGTQVTVSS

>  <polyreactivity (PSR sort gate)>
low polyreactivity

$$$$
>  <Macromolecule Sequence>
QVQLVETGGGLVQARGSLRLSSAASGIIFYRYAMGWYRQAPGKETDFVAAISWSGGSTTYADSVKGRFTISRDNAKNTVYLQMNSLKPVDTAVYYCNAERKYWSLWGPAYDYWGQGTQVTVSS

>  <polyreactivity (PSR sort gate)>
high polyreactivity

$$$$
>  <Macromolecule Sequence>
QVQLEESGGGLVQAGGSLRLSCAASGLIFITYAMGWYRQAPGKERELVATITLRGGSTYYADSVKGRFTISRDNAKNTVYLQMNSLKPEDTAVYYCAADVGYWGRSRGYPSDDYDYWGQGTQVTVSS

>  <polyreactivity (PSR sort gate)>
low polyreactivity

$$$$
>  <Macromolecule Sequence>
QVQLVESGGGLVQAGGSLRLSSAASGYTFGFYGLGWYRQAPGKERELVAAISRSGGGSTYYADSVKGRFTISRDNAKNSVYLQMNSLKPEDSAVYYCNRDFDDEMWGQGTQVTVSS

>  <polyreactivity (PSR sort gate)>
low polyreactivity

$$$$
>  <Macromolecule Sequence>
QVQLVESGGGLVQAGGSLRLSCAASGSTFGYYTMGRYRQAPGKERELVAAITWSGGTTYYAESVKGRFTISRDNAKNPVYLQMNSLKPEDTAVYYCATRPWYYASPRTRFGSWGQGTQVTVSS

>  <polyreactivity (PSR sort gate)>
high polyreactivity

$$$$
>  <Macromolecule Sequence>
QVQLVESGGGLVQAGGSLRLSCAASGSIFYYYAMGWYRQAPGKERELVAAITVSGGRTYYADSVKGRFTISRDNAKNTVYLQMNSLKPEDTAVYYCAAQIYGKYDYWGQGTQVTVSS

>  <polyreactivity (PSR sort gate)>
low polyreactivity

$$$$
>  <Macromolecule Sequence>
QVQLVESGGGLVQAGGSLRLSCAASGYTFYQNAMGWYRQAPGKERELVAAITFRTGSTYYADSVKGRFTISRDNAKNTVYLQMNSLKPEDTAVYYCAATRFLRYWWYGYWGQGTQVTVSS

>  <polyreactivity (PSR sort gate)>
low polyreactivity

$$$$
>  <Macromolecule Sequence>
QVQLVESGGGLVQAGGSLSLSCAASGSTFKHYAMGWYRQAPGKERELVAAISSRGGSTHYADSVKGRFTISRDNAMNTVYLQMNSLKPEDTAVYYCARDTDPQSSRSSDYDYWGQGTHVTVSS

>  <polyreactivity (PSR sort gate)>
low polyreactivity

$$$$
>  <Macromolecule Sequence>
QVQLVESGGGLVQAGGSLRLSCAASGRTFGYNTMGWYRQAPGKERELVARITWSGASTYYADSVKGRFTISRDNAKNTVYLQMNSLKPEDTAVYYCNTAYTVSWRSPYDYWGQGTQVTVSS

>  <polyreactivity (PSR sort gate)>
high polyreactivity

$$$$

###

# Assay Method Text: yeast display, Sf9 membrane polyspecificity reagent, FACS + sequencing; frameworks hold sequencing errors

>  <Macromolecule Sequence>
QVQLVESGGGLVQAGGSLRLSCAATGSTFDRNAMVWYRLAPGKERELVAAISWRGGRTYYADSVKGRFTISRDNAKNTVYLQMNSLKPEDTAVYYCSAKGPGIRSVEGYDYWGQGTQVTVSS

>  <polyreactivity (PSR sort gate)>
low polyreactivity

$$$$
>  <Macromolecule Sequence>
QVQLVESGGGLVQAGGSLRLSCAASGRILSRYVMGWYRQAPGKERELVAAISGRATSTYYADSVKGRFTISRDNAKNTVYLQMNSLKPEDTAVYYCATGYKTYAVTLYDYWGQGTQVTVSS

>  <polyreactivity (PSR sort gate)>
high polyreactivity

$$$$
>  <Macromolecule Sequence>
QVQLVESGGGLVQAGGSLRLSCAASGLILKYYAMGWYRQAPGKEREFVAAISSSGTRTYADSVKGRFTISRDNAKNTVYLQMNSLKPEDTAVYYCAKDYRVWVAATIAHDYWGQGTQVTVSS

>  <polyreactivity (PSR sort gate)>
low polyreactivity

$$$$
>  <Macromolecule Sequence>
QVQLVESGGGLVQAGGSLRLSCAASGSIFPWYAMGWYRPAPGKERELVADITNGSSTNYADSVKGRFTISRDNAKNTVYLQMNSLKPEDTAVYYCARDGIGADGYDYWGQGTQVTVSS

>  <polyreactivity (PSR sort gate)>
low polyreactivity

$$$$
>  <Macromolecule Sequence>
QVQLVESGGGLVQAGGSLRLSCAASGRTFSVNDMGWYRQAPGKERELVAAISFSGGSTYYADSVKGRFTISRDNAKNTVYLQMNSLKPEDTAVYYCAAEAYPSWFYVITGFGIYDYWGQGTQVTVSS

>  <polyreactivity (PSR sort gate)>
high polyreactivity

$$$$
>  <Macromolecule Sequence>
QVQLVESGGGLVQAGGSLRLSCAASGLTFKRYAMGWYRQAPGKEREFVAAISAGGASTHYADSVKGRFTISRDNAKNTVYLQMNSLKPEDTAVYYCATDYRTFRPSFGYWGQGTQVTVSS

>  <polyreactivity (PSR sort gate)>
low polyreactivity

$$$$
>  <Macromolecule Sequence>
QVQHVESGGGFVQAGGSLRLSCAASGITFYDYTMGWYRPAPGKERELVDAITSSGVSTYYADSVKGRFTISRDNAKKTVYLQMNSLKPEDTAVYYCATDAWSVYSYLAFTYDYWGQGTQVTVSS

>  <polyreactivity (PSR sort gate)>
low polyreactivity

$$$$
>  <Macromolecule Sequence>
QVQLVDSGGGLVQARGSLRLSCAASGYNFGNAMGWYRQPPGQEREFVAAISSSGSSTYYADSVKGRFTISRDNAKNTVYLQMNSLKPEDTAVYYCAKSRRSAAPKYDYWGQGTQVTVSS

>  <polyreactivity (PSR sort gate)>
high polyreactivity

$$$$
>  <Macromolecule Sequence>
QVQLVESGGGLVQARGSLRLSCAASGFTFAFYAMGWYRQAPGKEMELVAAITGSGGSTYDADSVKGRFTISRDNAKNTVYLQLNSLKPEDTAVYYCFTRGGYYLYYSYYYWGQGTQVTVSS

>  <polyreactivity (PSR sort gate)>
high polyreactivity

$$$$
>  <Macromolecule Sequence>
QVQLVESGGGLVQAGGSLRLSCAASGSIFRTNAMGWYRPAPGKERELVAAITGSGGSTYYADSVKGRFTISRDNAKNTVYLQMNSLKPEDTAVYYCATPVNRERHAEDYWGQGTQVTVSS

>  <polyreactivity (PSR sort gate)>
low polyreactivity

$$$$
>  <Macromolecule Sequence>
QVQLVESGGGLVQAGGSLRLSCAASGSTFGRNAMGWYRQAPGKERELVAAITASGGTTYYADSVKGRFTISRDNAMNTVYLQMNSLKPEDTAVYYCARAGHFSFKYDYWGQGTQVTVSS

>  <polyreactivity (PSR sort gate)>
low polyreactivity

$$$$
>  <Macromolecule Sequence>
QVQLVESGGGLVQAGGSLRLSCAASGSIIGVNAMGWYRQAPGKERELVAAISSTGGSTYYADSVKGRFTISRDNAKNTVYLQMNSLKPEDTAVYYCNTDYSKSIGDGYAGFDYWGQGTQVTVSS

>  <polyreactivity (PSR sort gate)>
low polyreactivity

$$$$
>  <Macromolecule Sequence>
QDQLVESGAGLVQAGRSLRLSCAASGSIFRWYAMGWYRQAPGKERELVAAISTSGGNTYYADSVKGRFTISRDNAKNTVYLEMKSLIPEDTAVYYCNALWYRSLYYRYDYWGQVTQVTVSS

>  <polyreactivity (PSR sort gate)>
high polyreactivity

$$$$
>  <Macromolecule Sequence>
QVQLVESGGGIVQAGGSLRLSCAASGIIFSIYGMGWYRQAPGKERELVAAINSGSSTNYADSVKGRFTISRDNAKNTVYLQMNSLKREDTAVYYCNADYRYPQYYHRTWIRYDYWGQGTQVTVSS

>  <polyreactivity (PSR sort gate)>
high polyreactivity

$$$$
>  <Macromolecule Sequence>
QVQLVESGGGLVQAGGSLRLSCAASGFIFYPYAMAWYRQAPGKERELVAVITSGGRTYYADSVKGRFTISRDNAKNTVYLQMNSLKPEDTAVYYCAARYGRIHWKANWPEYGYWGQGTQVTVSS

>  <polyreactivity (PSR sort gate)>
low polyreactivity

$$$$
>  <Macromolecule Sequence>
QVHLVESGGGLVQAGGSLRLSCAASGRIFNSYAMGWYRQAPGKERELVAAISRNGGITYYADSVKGRFTISRDNAKNTVYLQMNSLKPEDTAVYYCNADCSRRRYSSDYWGQGTQVTVSS

>  <polyreactivity (PSR sort gate)>
high polyreactivity

$$$$
>  <Macromolecule Sequence>
QVQLVESGGGLVQAGGSLRLSCAASGRIFGYYAMGWYRQAPGKERELVAAIRYSSGRTYYADSVKGRFTISRDNAKNTVYLQMNSLKPEDTAVYYCNAYSSTYFYNYDYWGQGTQVTVSS

>  <polyreactivity (PSR sort gate)>
high polyreactivity

$$$$
>  <Macromolecule Sequence>
QVQLVESGGGLVQAGGSLRLSCAASGGIFNINAMGWYRQAPGKERELVAGINWSDTGTYYADSVKGRFTISRDNAKNTVYLQMNSLKPEDTAVYDCAVSGYPVYITYVSYDYDYWGQGTQVTVSS

>  <polyreactivity (PSR sort gate)>
low polyreactivity

$$$$
>  <Macromolecule Sequence>
QVQLVESGGGLVQAGGSLRLSCAASGSIFYYNAMGWYRQAPGKERELVAAISQRGTRTYYADSVKGRFTISRDNAKNTVYLQMNSLKPEVTAVYYCAAESSSYYGYYIYYYWGQGTQVTVSS

>  <polyreactivity (PSR sort gate)>
high polyreactivity

$$$$
>  <Macromolecule Sequence>
QVQLVESGGGLVQAGGSLRLSCAASGRIFSSNAMGWYRQAPGKERELVAAITKSGGGTYYADSVKGRFTISRDNAKNTVYLQMNSLKPEDSAVYYCAADHGRPYFSYDYWGQGTQVTVSS

>  <polyreactivity (PSR sort gate)>
low polyreactivity

$$$$
>  <Macromolecule Sequence>
QVQLVESGAGLVQAGGSLRLSCAASGRTFVYNAMGWYRQAPGKERELVAAISSDGASTYYADSVKGRFTISRDNAKNTVYLQMNRLNPEDTAVYYCAADFSYYSYEHYYWGQATQVTVSS

>  <polyreactivity (PSR sort gate)>
low polyreactivity

$$$$
